log10 of IC50: recorded values
Target: Kynurenine 3-monooxygenase (Rattus norvegicus, UniProt O88867)
Sequence (O88867 whole entry): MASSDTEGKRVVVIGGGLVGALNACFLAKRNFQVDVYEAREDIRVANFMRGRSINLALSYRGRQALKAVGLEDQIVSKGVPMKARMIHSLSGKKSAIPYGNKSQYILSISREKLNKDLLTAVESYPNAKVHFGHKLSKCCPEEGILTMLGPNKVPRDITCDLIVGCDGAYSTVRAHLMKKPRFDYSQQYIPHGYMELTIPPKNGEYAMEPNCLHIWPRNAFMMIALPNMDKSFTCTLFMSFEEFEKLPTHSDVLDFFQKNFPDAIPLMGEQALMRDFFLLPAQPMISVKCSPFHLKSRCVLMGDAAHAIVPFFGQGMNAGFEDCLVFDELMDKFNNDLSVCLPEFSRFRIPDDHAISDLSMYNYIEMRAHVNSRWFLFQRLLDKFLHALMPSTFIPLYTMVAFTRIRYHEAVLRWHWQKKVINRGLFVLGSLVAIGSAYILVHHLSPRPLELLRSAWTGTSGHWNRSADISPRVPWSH
Test: Inhibition of Kynurenine-3-hydroxylase enzyme isolated from the rat liver
Give log10 of IC50, with IC50 taken in µM.

These solved cases illustrate the format of a correct answer.
| Compound Structure | Assay Target | log10 of IC50 |
| --- | --- | --- |
| O=C(O)C(=O)/C=C(\O)c1ccc(F)c(F)c1 | Kynurenine 3-monooxygenase (Rattus norvegicus, UniProt O88867) | -0.92 |
| Cc1cc(/C(O)=C/C(=O)C(=O)O)ccc1Cl | Kynurenine 3-monooxygenase (Rattus norvegicus, UniProt O88867) | 0.23 |
| COC(=O)C(=N)/C=C(\O)c1cccc(Cl)c1 | Kynurenine 3-monooxygenase (Rattus norvegicus, UniProt O88867) | 0.90 |

q: Consider the molecule `COC(=O)C(=O)/C=C(\O)c1ccc(Cl)c(C)c1` and give its measured log10 of IC50.
a: 0.69

q: Also check `N/C(=C\C(=O)c1ccc(F)c(F)c1)C(=O)O`
a: 0.18

q: Also check `N/C(=C\C(=O)c1ccc(F)c(Cl)c1)C(=O)O`
a: -0.09

q: Also check `COC(=O)C(=N)/C=C(\O)c1ccc(F)c(F)c1`
a: 0.56

----------
Molecular target: Kynurenine 3-monooxygenase (Rattus norvegicus)
Test: Inhibition of Kynurenine-3-hydroxylase enzyme isolated from the rat liver
pIC50: −log10 of the molar value.
The label depends only on pIC50: fulfilled if it is at least 6, not fulfilled if it is smaller.

| Compound | Label Class |
| --- | --- |
| COC(=O)C(=O)/C=C(\O)c1cccc(F)c1F | not fulfilled |
| O=C(O)C(=O)/C=C(\O)c1cccc(Br)c1 | not fulfilled |
| O=C(O)C(=O)/C=C(\O)c1ccc(Cl)c([N+](=O)[O-])c1 | not fulfilled |

Would you kindly look at the next entry?
q: Say whether NC(CC(=O)c1cccc([N+](=O)[O-])c1)C(=O)O (racemic) shows pIC50 of 6 or more.
a: not fulfilled

----------
Target: Kynurenine 3-monooxygenase (Rattus norvegicus) (UniProt O88867)
Sequence (O88867 whole entry, looked up): as the sequence (O88867 whole entry) above
Experiment: Inhibition of Kynurenine-3-hydroxylase enzyme isolated from the rat liver at 10 uM
Recorded Endpoint: inhibition (%)
Respond with the bare value in %.

These solved cases illustrate the format of a correct answer.
| Compound Structure | inhibition [%] |
| --- | --- |
| N/C(=C\C(=O)c1ccc(Cl)cc1)C(=O)O | 33 |
| N/C(=C\C(=O)c1ccccc1)C(=O)O | 17 |
| COC(=O)C(=N)/C=C(\O)c1ccccc1Cl | 31 |

q: Recorded inhibition for `COC(=O)C(=N)/C=C(\O)c1ccc(C)cc1` with Kynurenine 3-monooxygenase (Rattus norvegicus) (UniProt O88867), please?
a: 4

q: Also check `N/C(=C\C(=O)c1ccc(F)cc1)C(=O)O`
a: 41

q: Also check `COC(=O)C(=O)/C=C(\O)c1ccc(F)cc1`
a: 22

----------
Molecular target: Kynurenine 3-monooxygenase (Rattus norvegicus, UniProt O88867)
Experiment: Inhibition of Kynurenine-3-hydroxylase enzyme isolated from the rat liver
log10(IC50): recorded values
Give log10 of IC50, with IC50 taken in nM.

| Compound Structure | Assay Target | log10(IC50) |
| --- | --- | --- |
| COC(=O)C(=O)/C=C(\O)c1ccc(Cl)c(Cl)c1 | Kynurenine 3-monooxygenase (Rattus norvegicus, UniProt O88867) | 3.28 |
| O=C(O)C(=O)/C=C(\O)c1ccc(Cl)cc1 | Kynurenine 3-monooxygenase (Rattus norvegicus, UniProt O88867) | 3.48 |
| O=C(O)C(=O)/C=C(\O)c1ccc(F)c(Cl)c1 | Kynurenine 3-monooxygenase (Rattus norvegicus, UniProt O88867) | 2.43 |
| N/C(=C\C(=O)c1cccc(Cl)c1)C(=O)O | Kynurenine 3-monooxygenase (Rattus norvegicus, UniProt O88867) | 3.38 |

Now turn to the next compound.
q: Recorded log10(IC50) for `N[C@@H](CC(=O)c1cccc([N+](=O)[O-])c1)C(=O)O` with Kynurenine 3-monooxygenase (Rattus norvegicus, UniProt O88867), please?
a: 3.60
